Biological target: T1, rat CD47 (rat, UniProt P97829 19-303)
T1 construct: whole, on cells; also called CD47 on rat RBCs
T1 sequence (looked up): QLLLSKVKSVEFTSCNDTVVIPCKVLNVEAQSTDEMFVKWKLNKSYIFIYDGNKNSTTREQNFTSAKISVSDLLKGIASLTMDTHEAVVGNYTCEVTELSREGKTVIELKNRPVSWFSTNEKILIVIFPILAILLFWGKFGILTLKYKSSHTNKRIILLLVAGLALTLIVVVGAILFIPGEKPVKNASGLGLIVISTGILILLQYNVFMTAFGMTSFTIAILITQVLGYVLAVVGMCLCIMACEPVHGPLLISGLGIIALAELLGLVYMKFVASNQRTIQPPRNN
Assay: flow cytometry on RBCs, CHO supernatant 10 ng/ml
measurement name: mean fluorescence relative to chimeric antibody (ratio)
Field: numeric (ratio). Do not append units.

Clone 11 (pVxK7b-037-hum11-LC / pVxK7b-037-hum11-HC) (antibody, human IgG1, kappa, V domains shown, also called Cl 11) VH: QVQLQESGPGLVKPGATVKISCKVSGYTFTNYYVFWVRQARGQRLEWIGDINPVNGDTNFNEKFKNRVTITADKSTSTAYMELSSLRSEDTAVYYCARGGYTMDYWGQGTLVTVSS VL: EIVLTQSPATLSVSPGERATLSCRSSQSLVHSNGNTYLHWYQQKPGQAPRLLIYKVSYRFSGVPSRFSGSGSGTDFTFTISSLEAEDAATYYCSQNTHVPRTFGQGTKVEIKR
1.2
Clone 18 (pVxK7b-037-hum18-LC / pVxK7b-037-hum18-HC) (antibody, human IgG1, kappa, V domains shown) VH: EVQLVQSGAEVKKPGESLRISCKGSGYTFTNYYVFWIRQSPSRGLEWLGDINPVNGDTNFNEKFKNRVTITADKSTSTAYMELSSLRSEDTAVYYCARGGYTMDYWGQGTLVTVSS VL: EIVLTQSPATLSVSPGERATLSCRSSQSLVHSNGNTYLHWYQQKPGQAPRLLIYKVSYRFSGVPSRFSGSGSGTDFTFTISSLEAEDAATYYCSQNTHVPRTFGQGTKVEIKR
2.2

Turning now to a further record.
# input binder: chimeric antibody VxP037-01LC-Pro/VxP037-01HC-Pro (antibody, human IgG1, kappa, V domains shown, also called Chimera; VxP037-01LC/VxP037-01HC) VH: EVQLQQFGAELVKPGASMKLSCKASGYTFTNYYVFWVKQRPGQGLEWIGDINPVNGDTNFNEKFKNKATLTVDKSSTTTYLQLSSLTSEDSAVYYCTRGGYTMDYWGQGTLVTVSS VL: DVVMTQTPLSLSVSLGDQASISCRSSQSLVHSNGNTYLHWYLQKPGQSPKLLIYKVSYRFSGVPDRFSGSGSGTDFTLKISRVEAEDLGVYFCSQNTHVPRTFGQGTKVEIKR ; wanted: its mean fluorescence relative to chimeric antibody
1

Data origin: patent US20150274826A1
